All values here come from PubChem BioAssay (NCATS).

- ASSAY_REMARKS: Cell Viability - SK-N-SH (AID 435);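 further: potency means the concentration at half of the fitted maximal effect; compound exposure lasted 40 h at 37 °C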
- TEST_CONDITIONS: SK-N-SH neuroblastoma cell viability qHTS
- Description: NIH Chemical Genomics Center [NCGC] NIH Molecular Libraries Screening Centers Network [MLSCN] National Institutes of Environmental Health Sciences [NIEHS] National Toxicology Program [NTP] We have developed a 1536-well cell-based assay for quantitative high throughput screening (qHTS) against a number of cell lines to determine in vitro cytotoxicity of small molecules. […] 8. Detection; Luminescence; Viewlux plate reader […]
Results filed as inconclusive are left out. Calls of active or inactive are those of the source. The call rests on the fitted dose curve.
ASSAY_METRIC: Potency

Task item: Requested read-out: Potency. Entry: CCC/C=N/O
Reply: > 92 µM (inactive)

Task item: Name the reported Potency value associated with the molecule FC(Cl)(Cl)Cl
Reply: > 92 µM (inactive)

Task item: Entry under review: Nc1ccc(Oc2ccc(N)cc2)cc1 . Reported Potency?
Reply: > 92 µM (inactive)

Task item: Find the recorded Potency belonging to CN(C)N=O and report it.
Reply: > 92 µM (inactive)

Task item: // query Potency value for entry COc1ccc(C=O)cc1
Reply: > 92 µM (inactive)

Task item: Can you share its Potency? I mean this molecule: O=[N+]([O-])CCO
Reply: > 92 µM (inactive)

Task item: Return reported Potency; argument: Clc1cccc2ccccc12
Reply: > 92 µM (inactive)

Task item: // query Potency value for entry CN(C)c1ccc(N=Nc2ccccc2)cc1
Reply: > 92 µM (inactive)

Task item: What Potency value was documented for this molecule, C=CCc1cc(OC)c2c(c1)OCO2 ?
Reply: > 92 µM (inactive)

Task item: Quick check: Potency of Cc1ccc2c(c1N)C(=O)c1ccccc1C2=O ?
Reply: > 92 µM (inactive)

Task item: Given the molecule [O-][Cl+2]([O-])O , what is its reported Potency?
Reply: > 92 µM (inactive)

Task item: Which Potency is reported for this molecule? CC(Cl)(Cl)Cl
Reply: > 92 µM (inactive)

Task item: Dear colleague, I am looking for the recorded Potency of the following molecule: Cc1cccc(C)c1N
Reply: > 92 µM (inactive)

Task item: Can you share its Potency? I mean this molecule: CCN(N=O)C(N)=O
Reply: > 92 µM (inactive)

Task item: Value lookup for Potency; key = CC1CC(=O)O1 (configuration not stated)
Reply: > 92 µM (inactive)

Task item: Any idea what its Potency is? The molecule is CCCCCCCCCCCCCl
Reply: > 92 µM (inactive)

Task item: Record request: Potency value, item ClC(Cl)(Cl)C(Cl)(Cl)Cl
Reply: > 92 µM (inactive)

###

- TARGET: Retinoic acid receptor RXR-alpha (Homo sapiens)
- ASSAY_REMARKS: qHTS assay for small molecule antagonists of retinoid X receptor alpha signaling (AID 588546);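 further: cells stimulated with 9-cis-retinoic acid as agonist; on the % scale 0 is the no-effect control and ±100 the full control effect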
- TEST_CONDITIONS: HEK293T RXRa-UAS-bla, beta-lactamase ratio, antagonist mode
Results filed as inconclusive are left out.
ASSAY_METRIC: max response (%)
# unit: % | format: bare number

Task item: Give the measured max response of Nc1ccc(Cc2ccc(N)c(Cl)c2)cc1Cl .
Reply: -29.3

Task item: // query max response value for entry Clc1cccc(Cl)c1
Reply: 24.2

Task item: State the recorded max response for this entry: O=C(O)c1cc(Cl)ccc1Cl
Reply: -2.77

Task item: Form field: reported max response of CCCC[N+](=O)[O-]
Reply: -6.25

Task item: Quick check: max response of O=C(Cc1ccccc1)OCc1ccccc1 ?
Reply: -5.19

Task item: Param item = CC(=O)NNc1ccccc1 ; retrieve measured max response.
Reply: -22.9

Task item: Entry Nc1ccc(Cl)c(Cl)c1 : reported max response = ?
Reply: -9.29

Task item: Recorded max response of O=C(O)CCl , please.
Reply: -2.41

Task item: Report max response for O=[N+]([O-])c1ccc(Cl)c(Cl)c1Cl please.
Reply: 7.17

Task item: Item under review: Oc1c(Cl)c(Cl)cc(Cl)c1Cl . Reported max response?
Reply: -10.3

Task item: Record request: max response value, item [O-][Cl+2]([O-])O
Reply: -4.77

Task item: Entry CN(C)C(=O)Cl has what max response?
Reply: 8.18

Task item: I would be grateful if you could share the reported max response for N#CCCCCC#N .
Reply: 12.5

Task item: Query: max response; subject: O=[N+]([O-])c1cc(Cl)c(Cl)c(Cl)c1
Reply: -5.05
